Experiment: H69AR cell proliferation blockers – human, duplicate replicates, primary screen (AID 580);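 further: 100% = mean luminescence of untreated wells and 0% = no signal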
Settings: H69AR lung tumor cells viability, ATP luminescence, 72 h; at 10 µM; stronger effect = lower value
Calls of active or inactive are those of the source.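 How the source made its calls: active means viability at or under a set limit in both replicates, limit being median viability minus 3 SD (cut at about 48% in these data, passing the limit was not always enough); inconclusive means at or under the limit in just one replicate; inactive means at or above the limit in both replicates.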
Result Type: viability

Examples with their reported viability follow.
# Molecule, viability
measured = [
    ("Cc1noc(C)c1S(=O)(=O)N1CCN(Cc2ccc3c(c2)OCO3)CC1", "95.4% (inactive)"),
    ("CCOc1ccc(N(CC(=O)NCc2ccco2)S(=O)(=O)c2ccc(OC)c(OC)c2)cc1", "83.7% (inactive)"),
    ("CCC(C)NC(=O)c1cc(CC(C)C)on1 (stereo not drawn)", "83.6% (inactive)"),
    ("CCOC(=O)c1csc(NC(=O)C2CCCCC2)n1", "96.5% (inactive)"),
    ("CC(O)CN1C(=O)C(CC(=O)Nc2ccc(Cl)cc2)SC1=Nc1ccccc1 (stereo not drawn)", "66.4% (inactive)"),
    ("CC1CCc2nn(CC(=O)NCCCN3CCOCC3)cc2C1 (stereo not drawn)", "90.5% (inactive)"),
    ("COc1cccc(NC(=O)c2ccco2)c1", "94.9% (inactive)"),
]

Incoming: Return reported viability; argument: `COc1cc(/C=N/n2cnnc2)ccc1OCC(=O)N1CCOCC1`
Outgoing: 93% (inactive)

====

Test: MRP1 drug-resistance reversers in H69AR cells – cell-based, doxorubicin co-treatment, pilot screen (AID 601)
Details: H69AR cells + 2 uM doxorubicin, CellTiter-Glo, 72 h; measured here: viability with 2 uM doxorubicin; at 10 µM; stronger effect = lower value
# Lookup of reported viability keyed by entry
# number only, unit % dropped from output

# Compound, viability [%]
data = [
    ("O=C(OCC(=O)c1ccc[nH]1)c1ccc(S(=O)(=O)N2CCCCC2)cc1", 81),
    ("Cc1ccc(-c2noc(CN3C(C)CCCC3C)n2)cc1 (stereo not given)", 83.7),
    ("CCOC(=O)c1cccc(NC2c3ccccc3C(=O)N2Cc2ccco2)c1 (stereo not given)", 88.4),
    ("O=C(Nc1ccc2c(c1)OCO2)c1ccc(CN2CCOCC2)cc1", 88.3),
]

Let us examine a further case.
Incoming: Return reported viability; argument: `CCCCOC(=O)Cn1c(=O)oc2ccc(C)cc21`
Outgoing: 87.4

====

Experiment: S. cerevisiae growth inhibition in restrictive medium, OD615, pilot screen, restrictive growth control, yeast lifespan reduction project (AID 706);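 further: modified DeaD lifespan yeast strain shifted to restrictive glucose medium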
Details: OD615, 48 h, at 10 µM, stronger effect = higher value
# Lookup of reported growth inhibition keyed by entry
# number only, unit % dropped from output

Examples with their reported growth inhibition follow.
# Compound, growth inhibition, %
records = [
    ("CCCOc1ccc(N2CC(C(=O)Nc3ccc4c(c3)OCO4)CC2=O)cc1 (stereo not given)", 12.3),
    ("CSc1nc2c(c(=O)n1C)SC(C)C2 (stereo not given)", -10.4),
]

Incoming: Return reported growth inhibition; argument: `CCOC(=O)c1nc2sc3c(c2c(=O)[nH]1)CCCC3`
Outgoing: 12.2

Incoming: Return reported growth inhibition; argument: `c1csc(Cc2nc3ccccc3[nH]2)c1`
Outgoing: -11.8

Incoming: Return reported growth inhibition; argument: `CCCNC(=O)CS(=O)(=O)Cc1nc(-c2cccc(OC)c2)oc1C`
Outgoing: -2.08

Incoming: Return reported growth inhibition; argument: COC(=O)C(C)Sc1nnc2n(-c3cccc(C)c3)c(=O)c3c4c(sc3n12)CCCC4 (stereo not given)
Outgoing: 16.4

Incoming: Return reported growth inhibition; argument: COc1ccc(OCC(=O)N2CC3(C)CC2CC(C)(C)C3)cc1 (stereo not given)
Outgoing: -0.89

Incoming: Return reported growth inhibition; argument: Cc1nnc(N2C(=O)C(O)=C(C(=O)c3ccco3)C2c2ccc(F)cc2)s1 (stereo not given)
Outgoing: -28.6

Incoming: Return reported growth inhibition; argument: `CC(=O)NCC(=O)N(Cc1ccco1)C1(C(=O)NC2CCCCC2)CCCCC1`
Outgoing: 2.32

Incoming: Return reported growth inhibition; argument: `O=C1C/C(=C/NCc2ccccc2)C(=O)N1`
Outgoing: 0.205

====

Experiment: doxorubicin toxicity protection in MRP-1 cells – H69AR cells, CellTiter-Glo, duplicate, MRP-1 activator project, pilot screen (AID 807);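 further: compound pretreatment 18-22 h then 72 h combined with doxorubicin; 0% = doxorubicin alone and 100% = vehicle without doxorubicin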
Settings: H69AR viability with doxorubicin, CellTiter-Glo luminescence; at 10 µM; stronger effect = higher value
Result Type: viability increase (%)
# number only, unit % dropped from output

# Compound, Units Text, viability increase
measured = [
    ("CCOc1ccc(S(=O)(=O)n2ccnc2)c2ccccc12", "%", -1.1),
    ("COc1ccc(CCc2nc(-c3ccc(-n4cccc4)cc3)no2)cc1", "%", 1.78),
    ("CS(=O)(=O)c1ccc2nc(NC(=O)Cc3ccccc3)sc2c1", "%", -4.98),
    ("CCOc1ccc(N(CC(=O)Nc2ccccc2)S(C)(=O)=O)cc1", "%", -1.68),
    ("CCOC(=O)C1C(=O)N(C(=O)c2cncc(Br)c2)CC1c1ccccc1 (stereo unspecified)", "%", -0.37),
]

Incoming: Return reported viability increase; argument: O=C1C(=O)N(CCCn2ccnc2)C(c2cccnc2)/C1=C(/O)c1ccc(Cl)cc1 (stereo unspecified)
Outgoing: -0.32

Incoming: Return reported viability increase; argument: `Cc1c(C#N)c2ccccc2n1CC(=O)N1CCc2ccccc2C1`
Outgoing: -3.16

Incoming: Return reported viability increase; argument: `COc1cc(NC(=O)c2ccc(S(=O)(=O)N(C)C)cc2)cc(OC)c1OC`
Outgoing: -2.66

====

# Lookup of reported viability keyed by entry
Assay: Her2 expression decrease, cell viability multiplex – SKBR3 breast tumor cells, AlphaScreen, ATP viability, primary screen (AID 461);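 further: percent of carrier control wells set as 100% viability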
Conditions: SKBR3 Her2 protein level, 18-24 h, measured here: SKBR3 viability, ATP luminescence, at 10 µM
# number only, unit % dropped from output

Examples with their reported viability follow.
# Compound, Result Type, Meas Value
measured = [
    ("CCC(C)(NC(=O)c1ccc(=O)[nH]c1)C(=O)NC1CCCC1 (stereo not given)", "viability", 102),
    ("O=C(O)c1ccc(-c2ccc(O)c(F)c2)cc1", "viability", 94),
    ("S=c1[nH]nc(-c2ccccc2)n1C1C=CCCC1 (stereo not given)", "viability", 95.5),
    ("CN(C)S(=O)(=O)c1ccc2c(c1)c(=O)c(C(=O)NCCCN1CCCCCC1)cn2C", "viability", 110),
]

Let us examine a further case.
Incoming: Return reported viability; argument: CC1CCCCC1NC(=O)Cn1ncc2ccccc21 (stereo not given)
Outgoing: 104

====

Test: viability of HCT116 without oncogenic beta-catenin – human colon tumor cells, pilot screen (AID 823);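 further: 0% = wells killed by 20 µM Hyamine and 100% = untreated DMSO cell wells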
Conditions: HCT116 beta-catenin knockout viability, CellTiter-Glo, 60 h; at 10 µM; stronger effect = lower value
Results filed as inconclusive are left out.
# Lookup of reported viability keyed by entry
# number only, unit % dropped from output

Examples with their reported viability follow.
# Molecule, viability [%]
measured = [
    ("CCSC(C)CC1C/C(=N/O)c2c(CC)noc2C1 (stereo not drawn)", 93.6),
    ("Cc1noc(C)c1S(=O)(=O)NC1CCN(Cc2ccccc2)CC1", 95.8),
    ("COC(=O)C(C)Sc1nc2c(c(=O)n1-c1ccccc1)SCC2 (stereo not drawn)", 87.1),
    ("CC1CCc2nn(CC(=O)NCCCN3CCOCC3)cc2C1 (stereo not drawn)", 104),
    ("CCOC(=O)N1CCN(C(=O)C2CCN(C(=O)c3cc4sccc4n3CC)CC2)CC1", 91.7),
]

Let us examine a further case.
Incoming: Return reported viability; argument: `CCCCN(CCCC)CCn1cnc2c([nH]c3ccc(OC)cc32)c1=O`
Outgoing: 82.8

====

Test: H69AR cell proliferation blockers – human, duplicate replicates, primary screen (AID 580);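 further: 100% = mean luminescence of untreated wells and 0% = no signal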
Conditions: H69AR lung tumor cells viability, ATP luminescence, 72 h; at 10 µM; stronger effect = lower value
Calls of active or inactive are those of the source.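 How the source made its calls: active means viability at or under a set limit in both replicates, limit being median viability minus 3 SD (cut at about 48% in these data, passing the limit was not always enough); inconclusive means at or under the limit in just one replicate; inactive means at or above the limit in both replicates.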
# Lookup of reported viability keyed by entry

Examples with their reported viability follow.
# Compound, viability
rows = [
    ("c1nc(NCC2(N3CCOCC3)CCCCC2)c2ccsc2n1", "98.6% (inactive)"),
    ("COc1ccc(C2CC(c3ccc(Cl)cc3Cl)Nc3nc(N)nn32)cc1 (stereo unspecified)", "94% (inactive)"),
    ("O=C(Nc1ccc(N2C(=O)C3C4C=CC(C4)C3C2=O)cc1)Nc1nncs1 (stereo unspecified)", "87.8% (inactive)"),
    ("COC(=O)Cn1c(CN2CCN(c3ccccc3F)CC2)nc2c1c(=O)n(C)c(=O)n2C", "93.8% (inactive)"),
    ("CCOCCCNC(=O)C(c1ccccc1)N(Cc1ccc2c(c1)OCO2)C(=O)CNC(C)=O (stereo unspecified)", "105% (inactive)"),
    ("COc1ccc2c(c1OC)C(=O)OC2CC(=O)c1ccc(O)cc1 (stereo unspecified)", "87.3% (inactive)"),
    ("CC(=O)Nc1ccc(N=Cc2ccc[nH]2)cc1", "88.5% (inactive)"),
    ("CC(=O)NC(C)c1nc2ccccc2n1C(C)C (stereo unspecified)", "93.9% (inactive)"),
    ("CCOc1ccc(CCN2C(=O)C3C4C=CC(C4)C3C2=O)cc1OCC (stereo unspecified)", "87.9% (inactive)"),
    ("COc1ccc(CCNC(=O)c2cnn3ccccc23)c(OC)c1OC", "96.5% (inactive)"),
]

Incoming: Return reported viability; argument: `CC(C)c1ccc(-c2nc(N3CCCCC3)[nH]c(=O)c2C#N)cc1`
Outgoing: 88.3% (inactive)

Incoming: Return reported viability; argument: `CCOC(=O)Cc1nnc(NC(=O)c2ccccc2OCC)s1`
Outgoing: 98% (inactive)

Incoming: Return reported viability; argument: Cc1cc(C)cc(N(CC(=O)NC2CCC(C)CC2)S(=O)(=O)c2c(C)noc2C)c1 (stereo unspecified)
Outgoing: 88.1% (inactive)

Incoming: Return reported viability; argument: `Cc1ccc(-c2nc3cc(NC(=O)C(C)C)ccc3o2)cc1`
Outgoing: 82.4% (inactive)

Incoming: Return reported viability; argument: `COc1ccc(C(=O)Nc2nncs2)c(OC)c1`
Outgoing: 96.9% (inactive)

Incoming: Return reported viability; argument: `Oc1ccc2ccccc2c1CN1CCN(c2ccccc2F)CC1`
Outgoing: 76.6% (inactive)

Incoming: Return reported viability; argument: `CCN1C(=C2C(=O)c3ccccc3C2=O)C=Cc2ccccc21`
Outgoing: 93.4% (inactive)

Incoming: Return reported viability; argument: `CCOc1ccc(Cn2nnc(C(=O)Nc3ccc(OC)cc3OC)c2N)cc1`
Outgoing: 102% (inactive)

Incoming: Return reported viability; argument: Cc1cccc(C2CC(c3ccc(Cl)cc3)Nc3nc(N)nn32)c1 (stereo unspecified)
Outgoing: 96.6% (inactive)

Incoming: Return reported viability; argument: CC1=C(C(N)=O)C(c2ccccn2)n2nc(-c3ccccc3Cl)nc2N1 (stereo unspecified)
Outgoing: 91.6% (inactive)

Incoming: Return reported viability; argument: Cc1cccc(CN2CCC(CNC(=O)C3CCCN(S(=O)(=O)c4cnc[nH]4)C3)CC2)c1 (stereo unspecified)
Outgoing: 89.8% (inactive)
